# Test system: human melanocytes of the SKMel type
# testDescription: Depigmentation: melanin production by melanocytes in culture, melanin content by spectrophotometry
# Assay type: cell-based
# conditionLabel: 5 μM, human line SKMel, kojic acid = 1
Label key: y means Eff./Ref. to 5 μM (relative activity with respect to kojic acid at the same concentration) under 10; n means Eff./Ref. to 5 μM (relative activity with respect to kojic acid at the same concentration) of 10 or more.

| compound | targetOrTestSystem | assignedLabel |
| --- | --- | --- |
| C[S+]([O-])CCCCN=C=S (stereo not shown) | human melanocytes of the SKMel type | n |
| CS(=O)(=O)CCCCN=C=S | human melanocytes of the SKMel type | n |
| O=c1cc(CO)occ1O [kojic acid, Kojic acid, reference compound] | human melanocytes of the SKMel type | y |
| C[S+]([O-])CCCCNC(=S)NCCCC[S+](C)[O-] (stereo not shown) | human melanocytes of the SKMel type | n |
| CC(=O)CCCCN=C=S | human melanocytes of the SKMel type | y |
| C1CCNCC1 [reference compound] | human melanocytes of the SKMel type | n |
| C1COCCN1 [reference compound] | human melanocytes of the SKMel type | y |
| C[S+]([O-])CCCCN (stereo not shown) [reference compound] | human melanocytes of the SKMel type | n |
| CC[S+]([O-])CCCCN=C=S (stereo not shown) | human melanocytes of the SKMel type | n |
